What pIC50 was measured for each of the following?
molecular target: UniProt Q9NR97; assay: TLR8 inhibition reporter assay (HEK-Blue SEAP reporter); settings: HEK-Blue cells overexpressing human TLR8; R848 15.9 μM; 22 hour incubation
Sequence (Q9NR97 27-1041): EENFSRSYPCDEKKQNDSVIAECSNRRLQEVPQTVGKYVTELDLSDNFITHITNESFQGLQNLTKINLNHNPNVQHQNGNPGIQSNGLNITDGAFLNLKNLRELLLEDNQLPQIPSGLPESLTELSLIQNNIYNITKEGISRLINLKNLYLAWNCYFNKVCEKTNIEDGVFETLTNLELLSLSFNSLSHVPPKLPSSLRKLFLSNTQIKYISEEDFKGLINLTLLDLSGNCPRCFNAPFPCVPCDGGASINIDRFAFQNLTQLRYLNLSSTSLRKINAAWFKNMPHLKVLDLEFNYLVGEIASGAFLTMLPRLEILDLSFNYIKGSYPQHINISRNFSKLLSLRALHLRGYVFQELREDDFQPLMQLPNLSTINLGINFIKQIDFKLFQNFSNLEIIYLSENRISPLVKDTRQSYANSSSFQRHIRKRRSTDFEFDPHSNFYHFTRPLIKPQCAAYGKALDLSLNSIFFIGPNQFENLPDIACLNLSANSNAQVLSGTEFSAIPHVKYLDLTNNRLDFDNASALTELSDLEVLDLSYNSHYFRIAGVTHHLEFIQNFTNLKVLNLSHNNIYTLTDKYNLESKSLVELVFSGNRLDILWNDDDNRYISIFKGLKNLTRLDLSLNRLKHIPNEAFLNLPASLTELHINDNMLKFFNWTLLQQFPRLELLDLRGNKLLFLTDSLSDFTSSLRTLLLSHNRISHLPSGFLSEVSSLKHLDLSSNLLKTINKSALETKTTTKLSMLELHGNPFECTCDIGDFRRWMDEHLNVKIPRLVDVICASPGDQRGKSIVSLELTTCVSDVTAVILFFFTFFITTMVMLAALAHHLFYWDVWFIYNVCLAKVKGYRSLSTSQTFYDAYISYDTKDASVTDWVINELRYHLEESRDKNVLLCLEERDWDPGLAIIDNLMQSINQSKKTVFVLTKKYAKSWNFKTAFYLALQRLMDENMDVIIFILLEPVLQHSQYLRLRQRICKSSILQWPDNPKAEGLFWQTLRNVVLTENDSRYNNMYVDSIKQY
One number for each entry, as −log10 of the molar value.

# compound, target.of.assay, pIC50
rows = [
    ("COc1ccc(-c2[nH]c3ccc(NC(=O)[C@@H](N)CCCN)cc3c2C(C)C)cc1OC", "UniProt Q9NR97", 6.97),
    ("Cc1c(-c2ccnc3[nH]ccc23)[nH]c2ccc(N3CCN(C4CCN(CC(C)C)CC4)CC3)cc12", "UniProt Q9NR97", 4.34),
    ("COc1ccc(-c2[nH]c3ccc(N4CCN(C5CCN(C)CC5)CC4)cc3c2C(C)C)cc1OC", "UniProt Q9NR97", 8.10),
    ("CCc1c(-c2ccc(OC)c(OC)c2)[nH]c2ccc(N3CCN(C4CCN(CC(C)C)CC4)CC3)cc12", "UniProt Q9NR97", 7.96),
    ("CCc1c(-c2ccnc(C)c2)[nH]c2ccc(N3CCN(C4CCN(C(C)C)CC4)CC3)cc12", "UniProt Q9NR97", 4.75),
]

Each of the following entries comes with a recorded value; kindly state pIC50 for each.
1. COc1ccc(-c2[nH]c3ccc(NC(=O)[C@H](N)CC(C)C)cc3c2C(C)C)cc1OC
2. CNCCNC1CCN(c2ccc3[nH]c(-c4ccnc(C)c4)c(C(C)C)c3c2)C1=O (centres unmarked)
3. COc1ccc(-c2[nH]c3ccc(NC(=O)C4CCNC4)cc3c2C(C)C)cc1OC (centres unmarked)

result:
[7.33, 7.80, 8.08]

====

molecular target: human TLR9 (Homo sapiens, UniProt Q9NR96); assay: TLR9 inhibition reporter assay (HEK-Blue SEAP reporter); conditions: HEK-Blue cells overexpressing human TLR9; ODN2006 5 nM; 22 hour incubation
Sequence (Q9NR96 26-1032): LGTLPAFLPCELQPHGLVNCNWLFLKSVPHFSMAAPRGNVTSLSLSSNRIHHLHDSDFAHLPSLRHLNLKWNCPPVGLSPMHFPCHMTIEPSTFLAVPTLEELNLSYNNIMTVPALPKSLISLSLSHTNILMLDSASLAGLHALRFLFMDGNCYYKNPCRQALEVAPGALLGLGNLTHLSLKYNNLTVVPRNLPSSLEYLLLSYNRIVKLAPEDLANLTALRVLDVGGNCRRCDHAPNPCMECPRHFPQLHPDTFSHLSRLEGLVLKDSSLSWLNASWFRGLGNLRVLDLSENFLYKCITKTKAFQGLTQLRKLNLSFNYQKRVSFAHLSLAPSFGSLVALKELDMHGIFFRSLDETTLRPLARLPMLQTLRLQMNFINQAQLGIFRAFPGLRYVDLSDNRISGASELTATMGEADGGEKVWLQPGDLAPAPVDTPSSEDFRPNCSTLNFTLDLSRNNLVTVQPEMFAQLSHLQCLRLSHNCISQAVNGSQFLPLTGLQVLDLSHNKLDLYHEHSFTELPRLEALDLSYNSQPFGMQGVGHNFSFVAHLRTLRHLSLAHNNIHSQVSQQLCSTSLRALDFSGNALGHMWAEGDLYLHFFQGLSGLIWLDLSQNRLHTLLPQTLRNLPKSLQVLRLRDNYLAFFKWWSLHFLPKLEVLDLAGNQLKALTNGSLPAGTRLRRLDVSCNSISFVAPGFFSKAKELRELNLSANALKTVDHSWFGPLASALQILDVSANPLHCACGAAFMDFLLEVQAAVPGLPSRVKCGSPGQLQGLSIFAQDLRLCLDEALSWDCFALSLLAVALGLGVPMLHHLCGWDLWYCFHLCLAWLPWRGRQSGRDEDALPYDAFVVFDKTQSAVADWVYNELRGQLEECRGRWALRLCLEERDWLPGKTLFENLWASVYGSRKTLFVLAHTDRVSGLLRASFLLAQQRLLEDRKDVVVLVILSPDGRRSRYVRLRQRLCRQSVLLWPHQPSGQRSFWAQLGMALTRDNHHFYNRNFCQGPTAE
Please respond with reported IC50 for every item in the list.
Answers are plain numbers, in nM.

# compound, measurement.units, IC50
records = [
    ("COc1ccc(-c2[nH]c3ccc(NC(=O)[C@H](N)CC(C)C)cc3c2C(C)C)cc1OC [Example 16]", "nM", 5760),
    ("CCNCCOc1ccc(Nc2ccc3[nH]c(-c4ccc(OC)c(OC)c4)c(C(C)C)c3c2)cc1 [Example 105]", "nM", 2260),
    ("CCc1c(-c2ccc(OC)c(OC)c2)[nH]c2ccc(N3CCC4(CC3)CCN(C(C)C)CC4)cc12 [Example 183]", "nM", 672),
    ("CCN1CCN(C2CCC(Nc3ccc4[nH]c(-c5ccc(OC)c(OC)c5)c(C(C)C)c4c3)CC2)CC1 (stereo not shown) [Example 38]", "nM", 716),
    ("COc1ccc(-c2[nH]c3ccc(N4CCC(C(C)(C)O)CC4)cc3c2C(C)C)cc1OC [Example 110]", "nM", 29500),
    ("CCN1CCC(N2CCN(c3ccc4[nH]c(-c5ccnc6[nH]ccc56)c(C)c4c3)CC2)CC1 [Example 145]", "nM", 197),
]

Now consider the entry below.
query: For the compound COc1ccc(-c2[nH]c3ccc(N4CCC(NC5CC(C)(C)N(C)C(C)(C)C5)CC4)cc3c2C(C)C)cc1OC [Example 95] , what IC50 is on record?
result: 533
